Values from paper PMC5540273

Give measured %Inh for each item. Keep answers brief.
Tested on: ASK2;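 note: KINOMEscan kinase panel screen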
Construct: gene MAP3K6
Condition: concentration: 1 μM, replicates: in singlicate; n = 1
// units = %; emit number, no label

Requested field: %Inh. Item: Cn1cc(-c2ccc3c(c2)CCN3C(=O)Cc2cc(F)cc(C(F)(F)F)c2)c2c(N)ncnc21
0

Likewise for COc1cc(Nc2nccc(N3CCC(NS(=O)(=O)c4ccc(NC(C)=O)cc4)CC3)n2)cc(OC)c1OC ?
9

Likewise for CC(C)NCC(Cc1ccccc1)NC(=O)c1cc(Br)c(-c2ccnc3[nH]ccc23)s1.Cl.Cl (stereo not shown) ?
11

Likewise for CCOc1nccc(-c2c(-c3ccc(F)cc3)ncn2C2CCNCC2)n1 ?
0

Likewise for O=C(Nc1n[nH]c2cc(-c3cccs3)ccc12)C1CC1 ?
39

Likewise for Cc1nn2c(=O)cc(N3CCO[C@H](C)C3)nc2n1Cc1cccc(Cl)c1Cl ?
0

Likewise for COc1ccc(C)c(Nc2ccnc(Nc3ccc(-c4cnc[nH]4)cc3)n2)c1.Cl ?
0

Likewise for COc1cccc(CC(=O)N2CCc3cc(-c4cn(C)c5ncnc(N)c45)ccc32)c1 ?
12

Likewise for COc1ccc(NC(=O)c2ccoc2)cc1-c1ccc(C(=O)NCC2CC2)cc1 ?
0

Likewise for Cc1cccc(Nc2nc(NCCN)ncc2C(N)=O)c1 ?
8

Likewise for c1ccc(Oc2ccc(Nc3ccnc4cc(-c5ccc(CN6CCCCC6)o5)ccc34)cc2)nc1 ?
24

Likewise for CC(C)(C)c1ccc(C(=O)Nc2cn3cc(-n4ccnc4)ccc3n2)cc1 ?
6

Likewise for NCCC(NC(=O)c1cc(Br)c(-c2ccnc3[nH]ccc23)s1)c1ccccc1.O=C(O)C(F)(F)F.O=C(O)C(F)(F)F (stereo not shown) ?
11

Likewise for N#CC1(c2cccc(C(=O)Nc3cccc(Oc4ccc5nc(NC(=O)C6CC6)sc5n4)c3)c2)CC1 ?
3

Likewise for COc1cc(Nc2ccnc3cc(-c4ccncc4)ccc23)cc(OC)c1OC.Cl ?
0

Likewise for CN(C)CCNS(=O)(=O)c1ccc(-c2ccnc3[nH]ccc23)cc1 ?
23

Likewise for CNc1nccc(-c2ccc3c(N)n[nH]c3c2)n1 ?
0

Likewise for CCn1cnc2c(NCc3ccccc3)ncnc21 ?
0

Likewise for CC(C)c1nc(-c2cccc(NS(=O)(=O)c3c(F)cccc3F)c2)c(-c2ccnc(Nc3ccc(N4CCOCC4)nc3)n2)s1.Cl ?
20

Likewise for CCNC(=O)/C=C/c1n[nH]c2cc(Sc3ccccc3C(=O)NC)ccc12 ?
0

Likewise for CN(c1ccc(NC(=O)Nc2cccc(Cl)c2)cc1)c1ccnc(N)n1.Cl ?
15

Likewise for Cl.Cl.NC(CNC(=O)c1cc(Br)c(-c2ccnc3[nH]ccc23)s1)c1ccccc1 (stereo not shown) ?
20

Likewise for CSc1ccc(NC2=C(c3ccc(Cl)cc3)C(=O)NC2=O)cc1 ?
25

Likewise for CN(c1ccc2c(c1)nc(NCc1ccccc1)n2C)c1ccnc(Nc2ccc(CS(C)(=O)=O)cc2)n1.Cl ?
0

Likewise for Fc1cc(Cl)ccc1Nc1ccnc2cc(-c3ccc(CN4CCOCC4)o3)ccc12 ?
8
